Listing: viability, T/C of selected molecules
Test system: 242566-281-R-J2-PDC complex spheroid viability;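 also: spheroids exposed to compound for 7 days before readout; 100% = DMSO vehicle control wells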
ASSAY DETAILS: Anticancer human tumor 242566-281-R-J2-PDC patient-derived pancreatic carcinoma cell line growth inhibition [RAS]
MEASUREMENT CONDITIONS: second compound 0.000949 µM; first compound 1 µM; hits give low values
READOUT KIND: viability, T/C

- C[C@@H](NC(=O)c1ncnc(N)c1Cl)c1ncc(C(=O)Nc2cc(C(F)(F)F)c(Cl)cn2)s1 + CCn1c(-c2cccnc2C(C)OC)c2c3cc(ccc31)N1CCOC(CC(NC(=O)C(C(C)C)N(C)C(=O)C3(F)CCN(C(=O)C#CC(C)(C)N(C)C)CC3)C(=O)N3CCCC(N3)C(=O)OCC(C)(C)C2)C1: 103%
- CC1(O)CCCC1n1c(=O)c(C(F)F)cc2cnc(NC3CCN(S(C)(=O)=O)CC3)nc21 (stereo not drawn) + CCn1c(-c2cc(N3CCN(C)CC3)cnc2C(C)OC)c2c3cc(ccc31)-c1csc(n1)CC(NC(=O)C1CC1C)C(=O)N1CCCC(N1)C(=O)OCC(C)(C)C2: 98.9%
- CC(C)NCC(C(=O)N1CCN(c2ncnc3c2C(C)CC3O)CC1)c1ccc(Cl)cc1 (stereo not drawn) + CCn1c(-c2cccnc2C(C)OC)c2c3cc(ccc31)N1CCOC(CC(NC(=O)C(C(C)C)N(C)C(=O)C3(F)CCN(C(=O)C#CC(C)(C)N(C)C)CC3)C(=O)N3CCCC(N3)C(=O)OCC(C)(C)C2)C1: 92.2%
